System: M14 melanoma
Assay: NCI tumour cell line growth inhibition, 48 h
Below, each entry is listed alongside its reported TGI.

Compound | Op | TGI [µM]
NC(N)=NS(=O)(=O)c1ccc(Nc2c3ccccc3nc3c(C(=O)NC(CO)(CO)CO)cccc23)cc1 | = | 68.3
COc1cc2c3c(n(CCCCNC(=O)OCC4c5ccccc5-c5ccccc54)c(=O)c2cc1OC)-c1cc2c(cc1C3=O)OCO2 | > | 100
COP(=O)(OC)C(O)/C=C(\Cl)c1ccc(Cl)cc1 (stereo not given) | > | 100
O=C(CC(O)c1ccncc1)c1ccccc1 (stereo not given) | > | 100
CC(=O)O[C@H]1[C@H](OC(C)=O)[C@@H](CN=[N+]=[N-])OCO[C@@H]1CN=[N+]=[N-] | > | 100
Nc1ccc(C(=O)NN2C(=O)C(Cl)C2c2ccc([N+](=O)[O-])cc2)cc1 (stereo not given) | = | 26.5
CCn1c(-c2ccccc2)nc2c1C(=O)c1ccccc1C2=O | = | 54
CCN(CC)CCNc1ccc2ncn3c4c(OC)cccc4c(=O)c1c23 | = | 20.9
O=C1SC(c2ccccc2)(c2ccccc2)c2ccccc21 | > | 100
COc1cc(CNC(=O)[C@H](Cc2ccc(O)cn2)NC(C)=O)cc(OC)c1 | > | 100
